Source listed as PubChem BioAssay AID652241.

- Measured on: Virion infectivity factor (Human immunodeficiency virus type 1 group M subtype B (isolate BH10)) + Virion infectivity factor (Human immunodeficiency virus type 1 group M subtype B (isolate BRU/LAI)) + Virion infectivity factor (Human immunodeficiency virus type 1 group M subtype B (isolate PCV12)) + Virion infectivity factor (Human immunodeficiency virus type 1 group M subtype B (isolate HXB2)) (UniProt P69720+P69721+P69722+P69723)
- Sequence (P69720 whole entry, looked up): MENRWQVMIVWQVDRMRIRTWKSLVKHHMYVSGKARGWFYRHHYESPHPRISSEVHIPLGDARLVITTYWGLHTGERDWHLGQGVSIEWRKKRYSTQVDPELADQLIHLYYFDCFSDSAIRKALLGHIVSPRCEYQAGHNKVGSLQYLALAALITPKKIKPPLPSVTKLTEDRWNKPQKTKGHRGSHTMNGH
- Sequence (P69721 whole entry, looked up): as the sequence (P69720 whole entry, looked up) above
- Sequence (P69722 whole entry, looked up): as the sequence (P69720 whole entry, looked up) above
- Sequence (P69723 whole entry, looked up): as the sequence (P69720 whole entry, looked up) above
- Assay text: dose-dependent disruption of HIV Vif self-association – imaging, HEK293T, cherry-picks, dose response (AID 652241);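 note: imaged cell signal that rises when Vif self-association is disrupted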
- Recorded conditions: HEK293T Vif multimerization imaging, 24 h
Results filed as inconclusive are left out. Active and inactive are the calls of the source.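 Rule for the calls: active = fitted curve reaches activity 50 in the expected rising direction at or below the top valid tested dose; inconclusive = no clear call, values can overlap the other calls; inactive = activity in the wrong direction, and the rest.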
Parameter call: string, one of yes (1) for active, no (0) for inactive

Recorded results for 6 compounds are shown here.
INSERT INTO assay_data (compound, class) VALUES
  ('COc1ccc(-c2cc(N)n(S(=O)(=O)c3c(F)c(F)c(F)c(F)c3F)n2)cc1OC', 'yes (1)'),
  ('COc1ccc(-c2cc(-c3nc4ccccn4c3NCc3ccccc3)ccc2OC)cc1', 'yes (1)'),
  ('COc1ccc(-c2cc(C(F)(F)F)nc(S(C)(=O)=O)n2)cc1OC', 'yes (1)'),
  ('Cc1ccc(CCC(=O)Nc2ncc(Cc3cc(Cl)ccc3Cl)s2)o1', 'yes (1)'),
  ('COc1ccc2cc(-c3cc(C(=O)OCC(=O)NC4CCS(=O)(=O)C4)c4ccccc4n3)ccc2c1 (stereo not given)', 'yes (1)'),
  ('CCOC(=O)N1CCN(c2c(NCc3ccc(Cl)cc3)c(=O)c2=O)CC1', 'no (0)');

Now take the following compound into account.
Prompt: What did the test return for CCOc1ccccc1NC(=O)Cn1nnc(C(=O)NCc2cccs2)c1N ?
Response: yes (1)
